Catalogue of binders with associated % ADCC @ 6.67 nM, NCI-N87-CLDN18.2, FcR-TANK
Assayed Target: human Claudin 18.2 (CLDN18.2) (human, UniProt P56856-2 1-261)
Assay Comment: cell-based or functional assay
Answer with a number only, understood to be in %.

Binder	Unit Of Measurement	Recorded Measurement
413H9F8-H3L4 (antibody, V domains shown, humanized IgG; constant regions not specified) VH: EVQLVESGGGLVQPGGSLRLSCAASGFTFSSFGMHWVRQAPGKGLEWVAYISSGSSPIYYVDKLKGRFTVSRDNAKNSLYLQMNSLRAEDTAVYYCARAGYAVRNALDYWGQGTLVTVSS VL: DIVMTQSPDSLAVSLGERATISCKSSQSLLNVGNQKNYLAWYQQKPGQPPKLLIYGASTRESGVPDRFIGSGSGTDFTLTISSLQAEDVAVYFCQNDLFYPLTFGAGTKVEIK	%	16
364D1A7-H4L1 (antibody, V domains shown, humanized IgG; constant regions not specified; also called 364D1A7-H41L) VH: DVQLVESGGGLVQPGGSLRLSCAASGFTFSSFGMHWVRQAPGKGLEWVAYISSGSGSIYYADTVKGRFTLSRDNPKNTLYLQMNSLRAEDTAVYYCATSYYYGNALEYWGQGTTVTVSS VL: DIVMTQSPDSLAVSLGERATINCKSSQSLFNVGNQKNYLTWYQQKPGQPPKLLIYWASTRKSGVPDRFSGSGSGTDFTLTISSLQAEDVAVYYCQNVYSYPLTFGGGTKVEIK	%	9.3

The record that follows has no % ADCC @ 6.67 nM, NCI-N87-CLDN18.2, FcR-TANK shown yet.
Output % ADCC @ 6.67 nM, NCI-N87-CLDN18.2, FcR-TANK of 364D1A7-H1L1 (antibody, V domains shown, humanized IgG; constant regions not specified) VH: EVQLVESGGGLVQPGGSLRLSCAASGFTFSSFGMHWVRQAPGKGLEWVSYISSGSGSIYYADTVKGRFTISRDNAKNSLYLQMNSLRAEDTAVYYCATSYYYGNALEYWGQGTTVTVSS VL: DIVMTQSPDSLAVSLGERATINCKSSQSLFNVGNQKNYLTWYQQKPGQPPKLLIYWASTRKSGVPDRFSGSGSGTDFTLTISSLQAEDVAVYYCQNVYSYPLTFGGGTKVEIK 13.5
